Values were extracted from patent US20090035322A1.

# assay-system: T1, mutant human CD20 #9 (N163D, N166D) (human, UniProt P11836 1-297)
# T1 construct: Stably expressed on MG87 cells
# T1 chain: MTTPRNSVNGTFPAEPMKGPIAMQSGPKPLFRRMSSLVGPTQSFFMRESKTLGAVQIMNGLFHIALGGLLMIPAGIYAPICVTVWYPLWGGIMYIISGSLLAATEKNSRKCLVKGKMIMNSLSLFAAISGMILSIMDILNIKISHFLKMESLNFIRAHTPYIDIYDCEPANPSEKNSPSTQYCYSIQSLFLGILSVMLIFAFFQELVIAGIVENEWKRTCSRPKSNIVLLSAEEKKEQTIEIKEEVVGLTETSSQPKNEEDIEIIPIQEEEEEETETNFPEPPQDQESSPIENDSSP
# assay-explanation: FACS, mutant-hCD20 MG87 cells; 100%=best antibody
parameter-measured: Percent of Binding to Mutant Human CD20 (%)
Field: numeric (%). Do not append units.

Query: Request the reported Percent of Binding to Mutant Human CD20 associated with 6F6-1 (antibody, V domains shown, Fully human IgG, constant region not specified; also called 6F6-1N) VH: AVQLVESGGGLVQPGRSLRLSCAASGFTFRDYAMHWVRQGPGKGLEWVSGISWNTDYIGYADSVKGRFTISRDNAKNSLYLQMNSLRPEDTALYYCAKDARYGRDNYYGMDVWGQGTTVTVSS VL: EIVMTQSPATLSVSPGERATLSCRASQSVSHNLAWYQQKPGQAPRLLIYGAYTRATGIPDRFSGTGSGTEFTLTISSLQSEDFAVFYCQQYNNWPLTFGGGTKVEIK
Result: 4

Query: Request the reported Percent of Binding to Mutant Human CD20 associated with 10F2-13 (antibody, V domains shown, Fully human IgG, constant region not specified; also called 10F2-13N; ab 10F2-13) VH: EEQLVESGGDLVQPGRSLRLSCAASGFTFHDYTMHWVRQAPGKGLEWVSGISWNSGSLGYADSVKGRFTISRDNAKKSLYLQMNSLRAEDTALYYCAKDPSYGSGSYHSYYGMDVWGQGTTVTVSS VL: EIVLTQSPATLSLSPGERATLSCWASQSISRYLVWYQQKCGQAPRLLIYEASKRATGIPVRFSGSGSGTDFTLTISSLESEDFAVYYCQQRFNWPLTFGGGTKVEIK
Result: 4

Query: Request the reported Percent of Binding to Mutant Human CD20 associated with 2B7-7 (antibody, V domains shown, Fully human IgG, constant region not specified; also called 2B7-7N) VH: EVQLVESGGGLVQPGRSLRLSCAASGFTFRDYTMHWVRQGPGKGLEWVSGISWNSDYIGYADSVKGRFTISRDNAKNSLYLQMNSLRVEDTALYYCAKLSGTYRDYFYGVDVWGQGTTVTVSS VL: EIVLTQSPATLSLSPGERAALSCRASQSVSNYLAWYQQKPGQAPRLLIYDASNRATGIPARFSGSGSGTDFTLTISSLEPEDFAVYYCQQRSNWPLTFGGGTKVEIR
Result: 4
